This section lists GI50 readings for HCT-15.
State the answer as a number, implicitly in µM.

Cc1cc(N(CC(C)Br)CC(C)Br)ccc1/N=N/c1ccccc1C(=O)O (centres undefined): 8.81

Challenge: Entry COc1ccccc1NC(=O)C1=C(C)NC(C)=C(C(=O)Nc2ccccc2OC)C1c1ccc(C2C(C(=O)Nc3ccccc3OC)=C(C)NC(C)=C2C(=O)Nc2ccccc2OC)cc1 has what GI50?
Response given: 2.72

###

tested on: 786-0; test: NCI tumour cell line growth inhibition, 48 h
Active and inactive are the calls of the source. Cut-off read from the data, not from the text of the source: active = GI50 up to about 1.1 µM and inactive = higher.
value-type: GI50

Consider the worked cases shown below.
CSC(SC)=C(C#N)C(=O)Nc1cccc(Cl)c1: 33.8 µM (inactive)
C#CCOCn1cnc2ncnc(N)c21: > 100 µM (inactive)
C(#CC1(Nc2ccccc2)CCN(Cc2ccccc2)CC1)C1(Nc2ccccc2)CCN(Cc2ccccc2)CC1: 17.3 µM (inactive)

Challenge: Find the recorded GI50 belonging to COc1cccc(C2c3cc4c(cc3OC(C)(N3CCCC3)C2C)OCO4)c1 (stereo unspecified) and report it.
Response given: 26.1 µM (inactive)

Challenge: Item CN(C(=O)/C=C/c1ccccc1)C1C2CN3CCC(O2)C13 (stereo unspecified) has what recorded GI50?
Response given: > 100 µM (inactive)

Challenge: Query (compound): COC(=O)C1CCN(C(=O)OC(C)(C)C)CC1 ; field requested: GI50
Response given: > 100 µM (inactive)

Challenge: Look up GI50 for this compound: N#C/C1=C(\N)CCSSSC1
Response given: 35.8 µM (inactive)

Challenge: Endpoint output: GI50 of CCCCCCCCCCCCCCCC(=O)OCC1OC(n2ccc(N)nc2=O)C(O)C1O (stereo unspecified) . Value?
Response given: 4.29 µM (inactive)

Challenge: Entry under review: [N-]=[N+]=NC(c1cn(C2CC(O)C(CO)O2)c(=O)[nH]c1=O)C(Cl)I (stereo unspecified) . Reported GI50?
Response given: > 100 µM (inactive)

Challenge: Query (compound): O=C(O/N=C1\CCCC\C1=C/c1ccccc1)c1ccc([N+](=O)[O-])cc1 ; field requested: GI50
Response given: 98.6 µM (inactive)

Challenge: Field request: GI50 | item: O=C(CNc1ccc(Cl)cc1Cl)Nn1c(-c2ccccc2)nc2ccccc2c1=O
Response given: 16.8 µM (inactive)

###

system: T47D; test: NCI tumour cell line growth inhibition, 48 h
Active and inactive are the calls of the source. Rule as the data show it: active = GI50 up to about 1.1 µM and inactive = higher.
# GI50 per record follows

Guide cases for GI50, answers given:
COc1cc(C2c3cc4c(cc3[C@@H](Nc3ccccc3)C3CO[C@@H](OC)[C@H]23)OCO4)cc(OC)c1O (some centres undefined): 8.36 µM (inactive)
COc1cc(/C=C/C(=O)OC[C@H](Br)[C@H](OC(C)=O)c2ccc3c(c2)OCO3)cc(OC)c1OC: 52.5 µM (inactive)
C1CNCCN2CCCNCCN(C1)CC2: > 100 µM (inactive)
COC(=O)CSSCc1ccc([N+](=O)[O-])cc1: 24.1 µM (inactive)
C=C([C@@]1(O)C[C@H]2[C@H](CCC2(OC)OC)[C@@H]2c3ccccc3O[C@@H]21)[Si](C)(C)C: 69.8 µM (inactive)

Challenge: Can you share its GI50? I mean this compound: Cc1oc(N)c(S(=O)(=O)/C(C#N)=C/c2ccccc2[N+](=O)[O-])c1C
Response given: 27 µM (inactive)

Challenge: Report GI50 for CC[C@]1(Cc2ccc(OC)c(OC)c2)C2CC(C(=O)OC)ON2O[C@H](OCc2ccccc2)[C@@H]1OC(C)=O (some centres undefined) please.
Response given: 47 µM (inactive)

Challenge: Can you share its GI50? I mean this compound: Cc1cc(C)c(S(=O)(=O)N(CCCN)OCCCON(CCCN)S(=O)(=O)c2c(C)cc(C)cc2C)c(C)c1
Response given: 1.61 µM (inactive)

Challenge: I would be grateful if you could share the reported GI50 for O=S1(=O)OCCOS(=O)(=O)C1F .
Response given: > 100 µM (inactive)
